Recorded pIC50 for the following substances
- Target or test system: DPP-4 (manufactured by Sigma, derived from porcine kidney) (Sus scrofa)
- Construct: derived from porcine kidney; purchased Sigma; host or cells: porcine kidney (tissue-derived)
- Sequence (P22411 whole entry): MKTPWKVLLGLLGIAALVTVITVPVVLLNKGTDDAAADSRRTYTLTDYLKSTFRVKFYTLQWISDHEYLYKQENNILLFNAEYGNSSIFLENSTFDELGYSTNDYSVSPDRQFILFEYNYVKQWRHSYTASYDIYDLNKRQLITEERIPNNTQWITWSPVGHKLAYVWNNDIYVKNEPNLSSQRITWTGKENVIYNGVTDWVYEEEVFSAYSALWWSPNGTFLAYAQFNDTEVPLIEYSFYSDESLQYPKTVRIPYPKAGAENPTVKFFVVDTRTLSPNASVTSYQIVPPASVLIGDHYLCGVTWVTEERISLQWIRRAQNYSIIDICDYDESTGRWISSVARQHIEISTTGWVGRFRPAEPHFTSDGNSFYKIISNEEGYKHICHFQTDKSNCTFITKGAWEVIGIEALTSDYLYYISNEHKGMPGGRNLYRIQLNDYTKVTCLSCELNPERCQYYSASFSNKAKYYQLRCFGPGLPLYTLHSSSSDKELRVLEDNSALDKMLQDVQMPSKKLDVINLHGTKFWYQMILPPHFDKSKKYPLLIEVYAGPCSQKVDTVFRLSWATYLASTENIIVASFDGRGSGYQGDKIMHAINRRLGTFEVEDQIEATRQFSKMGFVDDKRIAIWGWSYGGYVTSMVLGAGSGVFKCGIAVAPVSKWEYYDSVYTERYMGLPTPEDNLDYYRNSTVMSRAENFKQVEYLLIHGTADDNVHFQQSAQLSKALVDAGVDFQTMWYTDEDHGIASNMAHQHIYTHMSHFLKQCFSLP
- Assay info: DPP-4 inhibition rate and IC50 measurement, fluorescence of AMC freed from Gly-Pro-MCA
- Type: biochemical
- Test parameters: Table 1; sample concentration changed between 0.001 and 7.2 μmol/ml; read-out: IC50 value
pIC50: −log10 of the molar value. Ends that are not written are not given here.

Substance | pIC50
GPAGPI [Example 4, Gly-Pro-Ala-Gly-Pro-Ile] | 4.30
GAIGPA [Example 12, Gly-Ala-Ile-Gly-Pro-Ala] | 3.55
GAIGPS [Example 13, Gly-Ala-Ile-Gly-Pro-Ser] | 3.50
H-GPAGP-OH [Example 1, Gly-Pro-Ala-Gly-Pro] | 4.22
GPLGPV [Example 5, Gly-Pro-Leu-Gly-Pro-Val] | 4.62
GAVGP [Example 15, Gly-Ala-Val-Gly-Pro] | 2.92
GAVGPA [Example 14, Gly-Ala-Val-Gly-Pro-Ala] | 3.36
GPAGPR [Example 2, Gly-Pro-Ala-Gly-Pro-Arg] | 4.10
